- test-system: HDAC 1 (Homo sapiens)
- Sequence (Q13547 whole entry, species assumed): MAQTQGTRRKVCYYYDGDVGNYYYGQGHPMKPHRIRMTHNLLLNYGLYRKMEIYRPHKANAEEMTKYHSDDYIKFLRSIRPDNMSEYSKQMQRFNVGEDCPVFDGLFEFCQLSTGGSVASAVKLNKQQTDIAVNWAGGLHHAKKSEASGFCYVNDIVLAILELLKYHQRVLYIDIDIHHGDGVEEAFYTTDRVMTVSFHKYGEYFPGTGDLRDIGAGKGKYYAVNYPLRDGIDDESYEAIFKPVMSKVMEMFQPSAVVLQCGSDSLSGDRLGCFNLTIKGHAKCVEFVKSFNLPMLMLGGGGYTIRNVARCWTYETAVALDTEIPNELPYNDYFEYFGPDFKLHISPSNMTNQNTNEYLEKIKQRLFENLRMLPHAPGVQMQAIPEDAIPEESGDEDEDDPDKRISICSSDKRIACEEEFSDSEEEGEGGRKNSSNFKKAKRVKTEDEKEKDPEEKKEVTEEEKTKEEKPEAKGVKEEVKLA
- experimental-protocol: HDAC 1 fluorescence assay with about 3 hours preincubation
- Format: biochemical
- test-context: 3-hour preincubation of enzyme and compound; two numbers = two different lots of the compound; read-out: HDAC 1 inhibitory activity (IC50 [μM]) (3-hour preincubation)
- Procedure: The second assay is similar to the first assay described above, except that preincubation is carried out for about 3 hours after the enzyme is introduced. The test compound was suspended in, and titrated in DMSO. It was then spotted into a 384-well test plate. […] The reaction was incubated at room temperature for about 15 minutes and relative fluorescence was read on an instrument reader. […]
readout-kind: IC50 (µM)

* C/C(Nc1ccc(C(=O)Nc2ccccc2N)cc1)=C1/C(=O)Nc2ccc(C(C)O)cc21 (stereo not drawn) | 0.036
* C/C(Nc1ccc(C(=O)Nc2ccccc2N)cc1)=C1/C(=O)Nc2ccc(C(=O)O)cc21 | 0.181
* COC(=O)c1ccc2c(c1)/C(=C(\C)Nc1ccc(C(=O)NO)cc1)C(=O)N2 | 0.635

====

Known IC50 of a selection of compounds
- test-system: HDAC 1 (Homo sapiens)
- experimental-protocol: HDAC 1 fluorescence assay with about 3 hours preincubation
- Type: biochemical
- test-context: 3-hour preincubation of enzyme and compound; two numbers = two different lots of the compound; read-out: HDAC 1 inhibitory activity (IC50 [μM]) (3-hour preincubation)
readout-kind: IC50

• C/C(Nc1ccc(C(=O)Nc2ccccc2N)cc1)=C1/C(=O)Nc2ccc(C(=O)N(C)C)cc21 = 0.071 µM
• C/C(Nc1ccc(C(=O)Nc2ccccc2N)cc1)=C1/C(=O)Nc2ccc(C(=O)C(C)C)cc21 = 0.335 µM
• CC(Nc1ccc(C(=O)Nc2ccccc2N)cc1)=C1C(=O)Nc2ccc(S(C)(=O)=O)cc21 = 0.1 µM
• COC(=O)c1ccc2c(c1)/C(=C(\C)Nc1ccc(C(=O)Nc3ccccc3N)cc1)C(=O)N2 = 0.033 µM
• COC(=O)c1ccc2c(c1)/C(=C/Nc1ccc(C(=O)Nc3ccccc3N)cc1)C(=O)N2 = 0.17 µM
• C/C(Nc1ccc(C(=O)Nc2ccccc2N)cc1)=C1/C(=O)Nc2ccc(S(=O)(=O)N3CCOCC3)cc21 = 0.186 µM
• CN(C)CCNC(=O)c1ccc2c(c1)/C(=C/Nc1ccc(C(=O)Nc3ccccc3N)cc1)C(=O)N2 = 0.063 µM
• C/C(Nc1ccc(C(=O)Nc2ccccc2N)cc1)=C1/C(=O)Nc2ccc(-c3csc(C)n3)cc21 = 0.232 µM

====

- test-system: CDK2 (Homo sapiens, UniProt P24941)
- experimental-protocol: CDK2 inhibition
- Format: biochemical
- test-context: two numbers = two different lots of the compound
readout-kind: IC50 (µM)

- CC(Nc1ccc(C(=O)Nc2ccccc2N)cc1)=C1C(=O)Nc2ccc(S(C)(=O)=O)cc21 [Example 8]: 0.13
- C/C(Nc1ccc(C(=O)Nc2ccccc2N)cc1)=C1/C(=O)Nc2ccc(C(=O)C(C)C)cc21 [Example 5]: 0.02
- C/C(Nc1ccc(C(=O)Nc2ccccc2N)cc1)=C1/C(=O)Nc2ccc(C(=O)N(C)C)cc21 [Example 12]: 0.34
- C/C(Nc1ccc(C(=O)Nc2ccccc2N)cc1)=C1/C(=O)Nc2ccc(C(=O)O)cc21 [Example 10]: 0.44
- COC(=O)c1ccc2c(c1)/C(=C(\C)Nc1ccc(C(=O)Nc3ccccc3N)cc1)C(=O)N2 [Example 1]: 0.043
- C/C(Nc1ccc(C(=O)Nc2ccccc2N)cc1)=C1/C(=O)Nc2ccc(C(C)O)cc21 (stereo not drawn) [Example 13]: 1.01
- CC(=O)c1ccc2c(c1)/C(=C(\C)Nc1ccc(C(=O)Nc3ccccc3N)cc1)C(=O)N2 [Example 4]: 0.01
- CN(C)CCNC(=O)c1ccc2c(c1)/C(=C/Nc1ccc(C(=O)Nc3ccccc3N)cc1)C(=O)N2 [Example 9]: 0.25
- C/C(Nc1ccc(C(=O)Nc2ccccc2N)cc1)=C1/C(=O)Nc2ccc(S(=O)(=O)N3CCOCC3)cc21 [Example 6]: 0.52
- COC(=O)c1ccc2c(c1)/C(=C/Nc1ccc(C(=O)Nc3ccccc3N)cc1)C(=O)N2 [Example 2]: 0.07
